pKi: recorded values
- experimental_target: JAK2 (Homo sapiens)
- Sequence (O60674 whole entry): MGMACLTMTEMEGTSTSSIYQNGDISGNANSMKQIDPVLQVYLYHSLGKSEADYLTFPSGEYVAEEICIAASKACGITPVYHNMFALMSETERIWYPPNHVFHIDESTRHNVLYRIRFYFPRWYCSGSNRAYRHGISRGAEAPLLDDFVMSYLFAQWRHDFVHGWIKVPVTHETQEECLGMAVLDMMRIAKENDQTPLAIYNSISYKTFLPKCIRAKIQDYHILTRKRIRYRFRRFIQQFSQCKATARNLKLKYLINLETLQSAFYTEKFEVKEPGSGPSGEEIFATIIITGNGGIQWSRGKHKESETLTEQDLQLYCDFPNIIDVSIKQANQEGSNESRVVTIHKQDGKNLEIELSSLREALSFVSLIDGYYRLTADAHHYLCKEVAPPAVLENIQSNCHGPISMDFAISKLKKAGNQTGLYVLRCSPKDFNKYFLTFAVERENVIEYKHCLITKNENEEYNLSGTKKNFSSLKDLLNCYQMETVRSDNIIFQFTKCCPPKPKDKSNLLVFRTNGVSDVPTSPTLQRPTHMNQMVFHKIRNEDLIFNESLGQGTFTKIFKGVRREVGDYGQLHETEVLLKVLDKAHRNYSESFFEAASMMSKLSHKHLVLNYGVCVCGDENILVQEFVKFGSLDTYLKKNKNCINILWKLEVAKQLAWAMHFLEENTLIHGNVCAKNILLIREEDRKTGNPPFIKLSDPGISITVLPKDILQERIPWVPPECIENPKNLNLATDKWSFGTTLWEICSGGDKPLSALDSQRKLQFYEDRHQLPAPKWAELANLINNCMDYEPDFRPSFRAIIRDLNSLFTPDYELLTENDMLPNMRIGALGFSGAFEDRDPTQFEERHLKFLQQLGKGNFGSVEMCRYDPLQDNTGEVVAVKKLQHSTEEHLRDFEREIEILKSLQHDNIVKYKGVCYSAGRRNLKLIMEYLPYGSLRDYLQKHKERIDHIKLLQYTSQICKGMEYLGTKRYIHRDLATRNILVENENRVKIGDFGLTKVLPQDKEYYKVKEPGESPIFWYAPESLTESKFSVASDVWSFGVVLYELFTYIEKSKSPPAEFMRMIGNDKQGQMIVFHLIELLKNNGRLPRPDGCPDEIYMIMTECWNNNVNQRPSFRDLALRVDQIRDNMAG
- assay_text: JAK2 inhibition assay (as Example 3 with JAK-2 enzyme)
- Type: biochemical
- applied_conditions: Table 6; enzyme inhibition data (Ki)
pKi: −log10 of the molar value.

Below, each entry is followed by its recorded pKi result.
CCNC(=O)c1cc(-c2ccnc3[nH]ccc23)c[nH]1 ... > 6.30
CCCN(CC1CC1)C(=O)c1cc(-c2c(Cl)cnc3[nH]ccc23)c[nH]1 ... > 6.30

[ask] Which pKi reading was recorded for the compound CC(=O)c1ccc(-c2c(Cl)cnc3[nH]ccc23)s1 ?
[reply] > 6.30

[ask] Quick check: pKi of O=C(c1cc(-c2c(F)cnc3[nH]ccc23)c[nH]1)N(CC1CC1)CC(F)(F)F ?
[reply] > 6.30

[ask] # pKi lookup, item c1cnc2c(-c3ccnc4[nH]ccc34)cccc2c1
[reply] < 5.30

[ask] I have this compound here, CCN(Cc1ccccc1)C(=O)c1cc(-c2ccnc3[nH]ccc23)c[nH]1 , and I need its recorded pKi.
[reply] > 6.30

[ask] Sample COc1cccc(-c2ccnc3[nH]ccc23)c1OC — what was its pKi?
[reply] < 5.30

[ask] Data request, read-out pKi, for CCN(Cc1ccccn1)C(=O)c1cc(-c2ccnc3[nH]ccc23)c[nH]1
[reply] > 6.30

[ask] What does the data say about its pKi? Entry: CN(CCc1ccccn1)C(=O)c1cc(-c2ccnc3[nH]ccc23)c[nH]1
[reply] > 6.30

[ask] GET /values?readout=pKi&item= C[C@@H](Nc1nc(-c2ccnc3[nH]ccc23)nc2ccccc12)C(=O)NCC(F)(F)F
[reply] 5.30 to 6.30

[ask] Form field: reported pKi of O=C(NC1CC1)c1ccc(-c2ccnc3[nH]ccc23)cc1
[reply] > 6.30

[ask] Would you mind telling me what pKi value was observed for COC(=O)N1CCCC(Nc2c(Cl)cnc3[nH]ccc23)C1 (stereo not drawn) ?
[reply] > 6.30

---

- experimental_target: UniProtKB O60674
- assay_text: JAK2 inhibition assay (as Example 3 with JAK-2 enzyme)
- Type: biochemical
- applied_conditions: Table 6; enzyme inhibition data (Ki)
// reported Ki per item

O=C(c1csc(-c2ccnc3[nH]ccc23)n1)N1CC=CC1 ... < 500 nM
Oc1ccccc1-c1ccnc2[nH]ccc12 ... 500 to 5000 nM
O=C(CNc1nc(-c2ccnc3[nH]ccc23)nc2ccccc12)NCC(F)(F)F ... 500 to 5000 nM

[ask] Returns the measured Ki for the input compound. Input: c1ccc(Oc2ccccc2-c2ccnc3[nH]ccc23)cc1
[reply] > 5000 nM

[ask] Can you look up the measured Ki of N#CCCN(Cc1cccnc1)C(=O)c1cc(-c2c(Cl)cnc3[nH]ccc23)c[nH]1 for me?
[reply] < 500 nM

---

- experimental_target: UniProtKB Q13464
- Sequence (Q13464 whole entry): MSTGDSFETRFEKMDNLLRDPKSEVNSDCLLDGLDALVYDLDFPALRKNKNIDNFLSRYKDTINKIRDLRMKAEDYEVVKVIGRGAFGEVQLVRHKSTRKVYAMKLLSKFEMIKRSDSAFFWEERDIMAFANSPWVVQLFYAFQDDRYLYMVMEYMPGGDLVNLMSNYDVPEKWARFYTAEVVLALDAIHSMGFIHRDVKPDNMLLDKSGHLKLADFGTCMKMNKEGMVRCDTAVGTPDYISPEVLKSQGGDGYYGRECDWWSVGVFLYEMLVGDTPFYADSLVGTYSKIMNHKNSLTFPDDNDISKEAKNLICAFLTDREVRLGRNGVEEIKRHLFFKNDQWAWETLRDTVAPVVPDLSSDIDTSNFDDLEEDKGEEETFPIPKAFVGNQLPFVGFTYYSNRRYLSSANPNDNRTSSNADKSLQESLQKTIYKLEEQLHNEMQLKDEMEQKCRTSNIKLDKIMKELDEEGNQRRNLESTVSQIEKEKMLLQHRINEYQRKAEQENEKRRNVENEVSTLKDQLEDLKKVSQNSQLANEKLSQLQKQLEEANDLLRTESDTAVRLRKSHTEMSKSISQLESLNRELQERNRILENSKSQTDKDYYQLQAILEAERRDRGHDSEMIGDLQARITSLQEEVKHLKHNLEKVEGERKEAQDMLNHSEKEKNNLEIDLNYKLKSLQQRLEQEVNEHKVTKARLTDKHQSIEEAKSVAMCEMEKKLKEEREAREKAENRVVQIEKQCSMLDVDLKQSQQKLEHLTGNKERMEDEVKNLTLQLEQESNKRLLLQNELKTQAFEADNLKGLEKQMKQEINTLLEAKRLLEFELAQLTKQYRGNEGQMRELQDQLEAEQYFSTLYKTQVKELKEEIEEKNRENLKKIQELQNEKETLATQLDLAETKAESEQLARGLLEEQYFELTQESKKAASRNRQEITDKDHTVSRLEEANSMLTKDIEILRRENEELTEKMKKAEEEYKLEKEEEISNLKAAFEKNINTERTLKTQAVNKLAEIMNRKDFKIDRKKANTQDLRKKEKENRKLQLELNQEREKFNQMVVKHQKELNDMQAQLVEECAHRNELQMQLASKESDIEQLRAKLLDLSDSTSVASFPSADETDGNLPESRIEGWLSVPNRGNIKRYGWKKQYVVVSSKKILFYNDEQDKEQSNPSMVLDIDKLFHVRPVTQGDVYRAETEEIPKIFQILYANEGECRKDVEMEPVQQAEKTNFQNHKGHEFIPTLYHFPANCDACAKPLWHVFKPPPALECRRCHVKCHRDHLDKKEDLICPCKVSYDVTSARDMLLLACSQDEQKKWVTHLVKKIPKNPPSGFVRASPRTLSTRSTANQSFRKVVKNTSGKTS
- assay_text: ROCK-I inhibition assay (radioactive enzyme assay, MBP substrate)
- Type: biochemical
- applied_conditions: Table 6; enzyme inhibition data (Ki)
pKi: −log10 of the molar value.
As shown below, each of these compounds has a reported pKi value.

CCCCN(CCC#N)C(=O)c1cc(-c2c(Cl)cnc3[nH]ccc23)c[nH]1 ... 5.30 to 6.30

[ask] I'd like to know its pKi. The compound in question is N#CC1CCCN1C(=O)c1cc(-c2ccnc3[nH]ccc23)c[nH]1 (stereo not drawn)
[reply] > 6.30

[ask] Request the reported pKi associated with Clc1cnc2[nH]ccc2c1-c1ccoc1
[reply] 5.30 to 6.30

[ask] Which pKi value is on record for N#CCCN(CCC(F)(F)F)C(=O)c1cc(-c2c(F)cnc3[nH]ccc23)c[nH]1 ?
[reply] 5.30 to 6.30

[ask] Fill in the blank: the reported pKi of CC(C)CN(CC(C)C)C(=O)c1cc(-c2ccnc3[nH]ccc23)c[nH]1 is ____.
[reply] > 6.30

[ask] Which pKi reading was recorded for the compound CN(C)CCCN(C)C(=O)c1cc(-c2c(Cl)cnc3[nH]ccc23)c[nH]1 ?
[reply] < 5.40

[ask] Would you kindly share the measured pKi for CCN(CCC#N)C(=O)c1ccc(-c2ccnc3[nH]ccc23)s1 ?
[reply] > 6.30
